Assign pH to each entry below.
- testDetails: pH of alkaline substance at 0.1 wt % in water
- Assay type: physicochemical
- assaySetup: dissolved or dispersed in water at 0.1 wt %
One number for each entry.

// known answers, use as guide
molecule | pH
CNC[C@H](O)[C@@H](O)[C@H](O)[C@H](O)CO | 10.6
O=P([O-])([O-])O.[Na+].[Na+] [Sodium hydrogen phosphate] | 9.2
O=C([O-])CC(O)(CC(=O)[O-])C(=O)[O-].[Na+].[Na+].[Na+] [Trisodium citrate] | 8.3
O=C([O-])[O-].[K+].[K+] [Potassium carbonate] | 10.9
[Mg+2].[OH-].[OH-] [Magnesium hydroxide] | 10.3

Please look at the items below and tell me pH for each one, in order.
1. O=C([O-])O.[Na+] [Sodium bicarbonate]
2. CC(=O)[O-].[Na+] [Sodium acetate]
3. [Ca+2].[OH-].[OH-] [Calcium hydroxide]
4. [O]=[Mg] [Magnesium oxide]
5. O=C([O-])[O-].[Ca+2] [Calcium carbonate]
6. O=C([O-])[O-].[Na+].[Na+] [Dried sodium carbonate]

Output:
1. 8.5
2. 7.6
3. 12.2
4. 10.7
5. 9.8
6. 11.0

The measured values listed here are drawn from patent US11382912B2.
